Entry source: patent US20140147868A1

In this section, each of the binders is paired with its reported ELISA (absorbance units) (absorbance units).
Target: unrelated control antibody
Experiment: phage ELISA, coated control mAb, 10^10 phagemid per well
Positions of bridges follow the written chain, without caps; N, C: chain ends. No end group written: not given here.
// print number alone

[[record]]
binder = "CSGLYPWDYFMCS (disulfide 1-12 (inferred); also: displayed on phage (phagemid)) [phagemid CS1-29p (phage-displayed disulfide cyclized 13 mer peptide)]"
quantitative_readout = 0.148

[[record]]
binder = "CSFFYSLCYCWCS (disulfide (positions not given here); also: four Cys, disulfide pairing not given here) [phagemid CS1-31p (phage-displayed disulfide cyclized 13 mer peptide)]"
quantitative_readout = 0.125


Asked: // lookup ELISA (absorbance units) (absorbance units) for CSLFYLWDQDRCS (disulfide 1-12 (inferred); also: displayed on phage (phagemid), coat fusion not given here) [phagemid CS1-2p (phage-displayed disulfide cyclized 13 mer peptide)]
Given back: 0.228

Asked: Any idea what its ELISA (absorbance units) (absorbance units) is? The binder is CSFRYLWDQDRCS (disulfide 1-12 (inferred); also: displayed on phage (phagemid)) [phagemid CS1-6p (phage-displayed disulfide cyclized 13 mer peptide)]
Given back: 0.203

Asked: Dear colleague, I am looking for the recorded ELISA (absorbance units) (absorbance units) of the following binder: CSFRYQWDMFRCS (disulfide 1-12 (inferred); also: displayed on phage (phagemid)) [phagemid CS1-11p (phage-displayed disulfide cyclized 13 mer peptide)]
Given back: 0.242

Asked: Give the measured ELISA (absorbance units) (absorbance units) of CSGLYPWDMFRCS (disulfide 1-12 (inferred); also: displayed on phage (phagemid)) [phagemid CS1-9p (phage-displayed disulfide cyclized 13 mer peptide)] .
Given back: 0.213
